Read-out: Plasminogen activator inhibitor-1 (PAI1), SERPINE1 (gene 5054)
Experiment: BSK_BE3C_PAI1: BioMAP Diversity Plus: BE3C Assay for Plasminogen activator inhibitor-1 (PAI1) Biomarker Activity (AID 2283037)
Settings: primary human bronchial epithelial cells; actives raise or lower the signal
Active and inactive are the calls of the source. The calls were made as follows: active = hit-call score of the fitted dose curve at least 0.9, where 1 is the maximum; inactive = score below 0.9.
Classes used: active, inactive

[[record]]
compound = "CC(O)CC(C)(C)O (stereo not given)"
group_label = "inactive"

[[record]]
compound = "CCCC(=O)OCCC(C)C"
group_label = "inactive"

[[record]]
compound = "CO[C@H]1/C=C/O[C@@]2(C)Oc3c(C)c(O)c4c(O)c(c(/C=N/N5CCN(C)CC5)c(O)c4c3C2=O)NC(=O)/C(C)=C\\C=C\\[C@H](C)[C@H](O)[C@@H](C)[C@@H](O)[C@@H](C)[C@H](OC(C)=O)[C@@H]1C"
group_label = "inactive"

[[record]]
compound = "CC(C)(C)c1cc(/C=C2\\SC(N)=NC2=O)cc(C(C)(C)C)c1O"
group_label = "inactive"

[[record]]
compound = "COCC(C)OCC(C)OCC(C)O (stereo not given)"
group_label = "inactive"

[[record]]
compound = "Cc1c2ccccc2c(C)c2c1ccc1ccccc12"
group_label = "active"

[[record]]
compound = "Cc1ncc(CO)c(CO)c1O"
group_label = "inactive"

[[record]]
compound = "Cc1occc1C(=O)Nc1ccc(C(=O)N2CCC(F)(F)/C(=C\\C(=O)N3CCC(N4CCCCC4)CC3)c3ccccc32)cc1"
group_label = "inactive"

[[record]]
compound = "CCN(Cc1cccnc1)C(=O)c1cccc(Cl)c1[C@]1(C)C(=O)N(Cc2ccc(OC)cc2OC)c2ccc(Cl)cc21"
group_label = "active"

[[record]]
compound = "CCO[Si](CCCNC(N)=O)(OCC)OCC"
group_label = "inactive"

